Tested on: KB
Assay: Antiproliferative activity against human KB cells at 10 uM after 72 hrs
Assay type: functional, cell-based
Active and inactive are the calls of the source. No cut-off for these calls is given here.
Answer with one of the outcomes yes (active), no (inactive)

Recorded test call requested for O=C(O)[C@H](Cc1c[nH]c2ccccc12)NCc1ccc(-c2c(O)c3ccccc3[nH]c2=O)cc1 no

Recorded test call requested for O=C(O)[C@@H](Cc1c[nH]c2ccccc12)NCc1ccc(-c2c(O)c3ccccc3[nH]c2=O)cc1 no

Recorded test call requested for N[C@@H](Cc1c[nH]c2ccccc12)C(=O)Nc1ccc(-c2c(O)c(-c3ccccc3)c[nH]c2=O)cc1 yes

Recorded test call requested for N[C@@H](Cc1c[nH]c2ccccc12)C(=O)Nc1ccc(-c2c(O)c3ccccc3[nH]c2=O)cc1 no

###

System: MCF7
Assay: Antiproliferative activity against human MCF7 cells at 10 uM after 72 hrs
Assay type: functional, cell-based
Calls of active or inactive are those of the source. The calls are words filed in the database; no cut-off is given here.
MEASURED ENDPOINT: Activity

O=C(O)[C@@H](Cc1c[nH]c2ccccc12)NCc1ccc(-c2c(O)c3ccccc3[nH]c2=O)cc1 :: inactive
O=C(O)[C@H](Cc1c[nH]c2ccccc12)NCc1ccc(-c2c(O)c3ccccc3[nH]c2=O)cc1 :: inactive
N[C@@H](Cc1c[nH]c2ccccc12)C(=O)Nc1ccc(-c2c(O)c3ccccc3[nH]c2=O)cc1 :: inactive

###

Assay: Antiproliferative activity against human EPC cells after 72 hrs
Assay type: cell-based
MEASURED ENDPOINT: IC50 (µM)
Note: unit µM is implicit; provide only the numeric part.

What measured IC50 goes with N[C@@H](Cc1c[nH]c2ccccc12)C(=O)Nc1ccc(-c2c(O)c(-c3ccccc3)c[nH]c2=O)cc1 ? 25
